TGI for assorted compounds
# Tested on: SF-539 CNS
# test-description: NCI tumour cell line growth inhibition, 48 h

Worked cases, answers included:
{"columns": ["smiles-repr", "observation-type", "result"],
 "data": [
  ["CN1C(=O)N(C)C2(CCN(CCCCCCF)CC2)C1=O", "TGI", "> 100 µM"],
  ["Cc1cc(O)c(C(C)C)cc1N=Cc1ccccc1O", "TGI", "49.3 µM"],
  ["CC(=O)O[C@H]1C=CC23OC(=O)[C@]1(C)[C@H]2[C@H](C(=O)O)C12CC(=O)[C@@](CO)(CC[C@H]13)C2", "TGI", "> 100 µM"],
  ["CCc1nc(-n2c(-c3ccccc3)nc3ccccc3c2=O)nc(N)c1-c1ccc(Cl)cc1", "TGI", "> 100 µM"]
]}

Now look at this one.
Please fill in: TGI reported for `N#C/C(=C\c1ccccc1Br)C(=O)c1ccccc1` = > 100 µM

====

# Tested on: UO-31 renal
# test-description: NCI tumour cell line growth inhibition, 48 h
observation-type: TGI

{"columns": ["compound", "observation-type", "result"],
 "data": [
  ["Cc1ncc([N+](=O)[O-])n1CCNC(=O)CCCCCn1ccnc1[N+](=O)[O-]", "TGI", "> 100 µM"],
  ["NCP(=O)(O)OCC(=O)O", "TGI", "> 100 µM"],
  ["Cc1ccc(NC(=O)CCC(=O)C(C#N)c2ccccc2)cc1C (stereo not given)", "TGI", "> 100 µM"],
  ["COc1ccc(C2=NOP(c3ccccc3)(c3ccccc3)(c3ccccc3)C2)cc1", "TGI", "> 100 µM"]
]}

Please fill in: TGI reported for CCCCCCCCCCSCC(CO)NC(=O)/C=C/c1c(C)[nH]c(=O)[nH]c1=O (stereo not given) = > 50 µM

====

# System: SF-268 CNS
# test-description: NCI tumour cell line growth inhibition, 48 h
observation-type: TGI

Worked cases, answers included:
{"columns": ["molecule", "target", "TGI"],
 "data": [
  ["Nc1c(C(=O)Nc2cccc(Br)c2)sc2nc3c(cc12)C(O)CCC3 (centres undefined)", "SF-268 CNS", "> 57.6 µM"],
  ["COc1ccc(C2C(Cl)C(=O)N2NC(=O)Cc2ccccc2)cc1OC (centres undefined)", "SF-268 CNS", "> 100 µM"],
  ["COc1cccc(-c2cc(=O)c3cc(Cl)cnc3[nH]2)c1", "SF-268 CNS", "> 87.3 µM"],
  ["O=C1c2ccn(CCCCN3CCC(O)CC3)c2C(=O)c2c1c(O)c1ccccc1c2O", "SF-268 CNS", "> 74.3 µM"]
]}

Assay SF-268 CNS, sample `CC[C@H](C)C1=C(OC(C)=O)[N@+]2([O-])Oc3ccc(-c4c(OC(C)=O)c(OC(C)=O)c(-c5ccc(OC(C)=O)cc5)c(OC(C)=O)c4OC(C)=O)cc3O[C@]2([C@@H](C)CC)C(=O)N1OC(C)=O` , TGI read: > 50 µM

====

TGI for assorted compounds
# System: OVCAR-4 ovarian
# test-description: NCI tumour cell line growth inhibition, 48 h

{"columns": ["compound", "target", "TGI"],
 "data": [
  ["COc1c(N2CCN(Cn3c(O)c(N=NC(=O)c4ccncc4)c4cc(F)ccc43)C(C)C2)c(F)cc2c(=O)c(C(=O)O)cn(C3CC3)c12 (stereo not given)", "OVCAR-4 ovarian", "> 50 µM"],
  ["COc1ccc2nc3cccc(C(=O)NCCN(C)C)c3nc2c1", "OVCAR-4 ovarian", "8.72 µM"],
  ["CC1(C)CC2C(C1=O)C1(C)CCCC2(C)C1=O (stereo not given)", "OVCAR-4 ovarian", "> 100 µM"],
  ["C=CC1(c2ccc(OC)cc2)OCCCO1", "OVCAR-4 ovarian", "> 100 µM"],
  ["CCOC(=O)c1ccccc1-c1c2ccc(=[N+](C)C)cc-2oc2cc(N(C)C)ccc12", "OVCAR-4 ovarian", "> 41.5 µM"],
  ["COc1cc2c(cc1OC)-c1ncc3cc4c(cc3c1C2)OCO4", "OVCAR-4 ovarian", "> 100 µM"]
]}

Please fill in: TGI reported for `COc1ccc(C2=NOP(c3ccccc3)(c3ccccc3)(c3ccccc3)C2)cc1` = > 100 µM

====

# Test system: UACC-257 melanoma
# test-description: NCI tumour cell line growth inhibition, 48 h
GI50 for assorted compounds

{"columns": ["smiles-repr", "GI50"],
 "data": [
  ["O=C(CCl)Nc1cc(O)c2c(c1)C(=O)c1cccc(O)c1C2=O", "2.52 µM"]
]}

Please fill in: GI50 reported for `COc1cccc(C2=C(c3cn(C)c4cccc(OC)c34)C(=O)NC2=O)c1` = > 15.9 µM

Please fill in: GI50 reported for `O=C(NCCCCOCC#Cc1ccccc1C#CCS(=O)(=O)c1ccccc1)c1cc2ccccc2[nH]1` = 22.4 µM

Please fill in: GI50 reported for `Cc1c(C(=O)O[C@H]2[C@@H]3[C@H](C)CC[C@H]3[C@]3(C)O[C@@]2(C2CCCCC2)C[C@H]3OC(=O)CO)ccc2ccccc12` = 7.83 µM

====

# Tested on: SK-MEL-5 melanoma
# test-description: NCI tumour cell line growth inhibition, 48 h
TGI for assorted compounds

{"columns": ["compound", "TGI"],
 "data": [
  ["c1ccc(CCn2cncn2)cc1", "> 100 µM"],
  ["COc1ccc(NC(=O)/C=C(C)/C=C/C=C(C)\\C=C\\C2=C(C)CCCC2(C)C)cc1", "> 100 µM"],
  ["O=C(O)C(=O)CBr", "> 100 µM"],
  ["COc1cc2c(cc1OC)-c1ncc3cc4c(cc3c1C2)OCO4", "> 100 µM"]
]}

Please fill in: TGI reported for OCC(O)C(O)C(O)C(O)/C=N/Nc1nc(O)c(/C=C2\C=Nc3ccccc32)[nH]1 (centres undefined) = > 100 µM

Please fill in: TGI reported for `NS(=O)(=O)c1ccc(NC(=O)COC(=O)c2cccc3c(=O)c4ccccc4[nH]c23)cc1` = > 100 µM

Please fill in: TGI reported for `O=C(Oc1cccc(Cl)c1)c1cc2cc(CCl)ccc2oc1=O` = 33.2 µM

Please fill in: TGI reported for `COc1ccccc1N=C1SCCN1C(=S)Nc1ccc(S(=O)(=O)/N=C/N(C)C)cc1` = 37 µM

Please fill in: TGI reported for `CCOP(=O)(OCC)C(C)(C)OC(=O)NC#N` = > 100 µM

Please fill in: TGI reported for `O=[N+]([O-])c1cc(F)c2cccnc2c1O` = 73.7 µM

Please fill in: TGI reported for COC(=O)C(Cc1nc2ccccc2[nH]c1=O)C(=O)C(=O)Nc1cc(C(F)(F)F)ccc1Cl (centres undefined) = 56 µM

Please fill in: TGI reported for `COc1ccc(C(=O)O/N=C2/CCC/C2=C\c2ccccc2)cc1` = > 100 µM

Please fill in: TGI reported for `C1CC[N-]CC1.CC(=N\O)/C(C)=N/O.CC(=N\O)/C(C)=N/O.[CH2-]CCN1CCOCC1.[Co+2]` = > 100 µM

Please fill in: TGI reported for `CN1CCN(CCOc2ccc(-c3cnc4c(-c5ccc(F)cc5)cnn4c3)cc2)CC1` = 3.04 µM

====

TGI for assorted molecules
# Tested on: HCT-15 colon
# test-description: NCI tumour cell line growth inhibition, 48 h
The reply should be a number in µM, with the unit left off.

Please fill in: TGI reported for `CCN(CC)CCNc1ccc2ncn3c4cc(=O)ccc4c(O)c1c23` = 17

Please fill in: TGI reported for `CC1=C(C(=O)Nc2ccccc2)C(c2ccc(C(C)C)cc2)C(C(=O)Nc2ccccc2)=C(C)N1` = 61.4

Please fill in: TGI reported for `CCN(CC)CCC(=O)c1ccc(Oc2ccc(F)cc2)cc1` = 36.7

Please fill in: TGI reported for `CN(C)CCNc1nc2c(no[n+]2[O-])c2ccccc12` = 57.4

====

# Tested on: ACHN renal
# test-description: NCI tumour cell line growth inhibition, 48 h
observation-type: TGI

{"columns": ["molecule", "TGI"],
 "data": [
  ["COC(=O)[C@]12CC[C@@H](C)[C@H](C)[C@@H]1C1=CC[C@@H]3[C@@]4(C)CC(=O)[C@H](OC(=O)c5ccco5)[C@@]5(C)COC(=C45)C[C@@]3(C)[C@]1(C)CC2", "> 100 µM"],
  ["C/C=C1\\CC(C(=O)OCC)CCCCCCCCCCC1=O (stereo not given)", "> 100 µM"],
  ["CC(=O)N(CN1C(=O)CCC1C(=O)O)c1ccccc1Cl (stereo not given)", "> 100 µM"],
  ["NS(=O)(=O)c1ccc(NC(=O)Nc2ccccc2F)cc1", "> 100 µM"],
  ["Cc1cc(O)cc2c1c(=O)c1ccccc1n2C", "> 100 µM"],
  ["CCOC(=O)Cc1csc(NC(=O)COC(=O)c2ccc(OC)cc2)n1", "> 100 µM"],
  ["Cn1ncc(-c2ccc3c(=O)[nH]nc(CN)c3c2)c1-c1c(F)cc2ccccc2c1C#N", "16.5 µM"],
  ["ClCC#CCSc1ncnc2c1ncn2CC#CCCl", "5.5 µM"]
]}

Assay ACHN renal, sample CC1(C)C2CCC(N)(C2)C1O (stereo not given) , TGI read: > 100 µM

Assay ACHN renal, sample `COc1cc2c(cc1OCCCCCOc1cc3c(cc1OC)C(=O)N1CCC[C@H]1CN3)N=C[C@@H]1CCCN1C2=O` , TGI read: 27.6 µM

Cited source for all entries: PubChem BioAssay (NCI)
